target: UniProtKB P08686; experiment: Inhibition of C-terminal His-tagged recombinant human CYP21A2deltaH mutant expressed in Escherichia coli DH5alpha assessed as decrease in progesterone hydroxylation preincubated for 3 mins followed by NADPH addition measured after 8 mins in presence of cytochrome p450 reductase by LC-MS/MS method
Sequence (P08686 whole entry, looked up, stated change not applied): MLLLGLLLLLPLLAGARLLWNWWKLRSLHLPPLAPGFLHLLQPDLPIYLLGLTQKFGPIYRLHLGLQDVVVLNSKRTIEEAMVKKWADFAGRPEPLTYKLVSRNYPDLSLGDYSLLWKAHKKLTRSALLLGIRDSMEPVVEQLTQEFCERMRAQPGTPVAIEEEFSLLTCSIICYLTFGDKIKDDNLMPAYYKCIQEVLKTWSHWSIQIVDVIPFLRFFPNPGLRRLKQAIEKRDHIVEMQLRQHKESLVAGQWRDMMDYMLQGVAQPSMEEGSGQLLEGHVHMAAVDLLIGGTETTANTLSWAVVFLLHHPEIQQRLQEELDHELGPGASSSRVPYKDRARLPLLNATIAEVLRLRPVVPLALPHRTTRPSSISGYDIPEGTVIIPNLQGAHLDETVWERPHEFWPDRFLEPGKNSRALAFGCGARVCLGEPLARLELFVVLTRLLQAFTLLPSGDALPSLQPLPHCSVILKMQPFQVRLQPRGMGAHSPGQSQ
pIC50: −log10 of the molar value.
Assign met to entries whose pIC50 meets or exceeds 6; assign not met to the rest.

Request: Reported pIC50 reaches at least 6 for C[C@]12CCC(=O)C=C1CC[C@@H]1[C@@H]2CC[C@]2(C)C(c3cccnc3)=CC[C@@H]12 ?
Result: met

Request: Determine whether this molecule has pIC50 no lower than 6: C[C@]12CC[C@H](O)C[C@@H]1C(=O)C[C@@H]1[C@@H]2CC[C@]2(C)C(c3cccnc3)=CC[C@@H]12
Result: met

Request: Is pIC50 for C[C@]12CC[C@H](O)C[C@@H]1NC(=O)C[C@@H]1[C@@H]2CC[C@]2(C)C(c3cccnc3)=CC[C@@H]12 at or above 6?
Result: not met

Request: Determine whether this molecule has pIC50 no lower than 6: C[C@]12CC[C@H](O)C[C@@H]1[C@@H](O)C[C@@H]1[C@@H]2CC[C@]2(C)C(c3cccnc3)=CC[C@@H]12
Result: met

---

target: Steroid 17-alpha-hydroxylase/17,20 lyase (Homo sapiens); experiment: Inhibition of C-terminal His-tagged recombinant human CYP17A1delta19H mutant expressed in Escherichia coli DH5alpha assessed as decrease in progesterone hydroxylation preincubated for 3 mins followed by NADPH addition measured after 10 mins in presence of cytochrome p450 reductase by LC-MS/MS method
ASSAY METRIC: pIC50
A value of pIC50 is the negative decimal logarithm of a concentration given in moles per litre.

Illustrative cases are given below, each with its answer.
{"COMPOUND": "C[C@]12CCC(=O)C=C1CC[C@@H]1[C@@H]2CC[C@]2(C)C(c3cccnc3)=CC[C@@H]12", "STUDY SYSTEM": "Steroid 17-alpha-hydroxylase/17,20 lyase (Homo sapiens)", "RECORDED MEASUREMENT": 8.21}
{"COMPOUND": "C[C@]12CC[C@H](O)CC1=C(C(N)=O)C[C@@H]1[C@@H]2CC[C@]2(C)C(c3cccnc3)=CC[C@@H]12", "STUDY SYSTEM": "Steroid 17-alpha-hydroxylase/17,20 lyase (Homo sapiens)", "RECORDED MEASUREMENT": 7.64}
{"COMPOUND": "C[C@]12CC[C@H](O)C[C@@H]1[C@@H](O)C[C@@H]1[C@@H]2CC[C@]2(C)C(c3cccnc3)=CC[C@@H]12", "STUDY SYSTEM": "Steroid 17-alpha-hydroxylase/17,20 lyase (Homo sapiens)", "RECORDED MEASUREMENT": 8.14}
{"COMPOUND": "C[C@]12CC[C@H](O)C[C@@H]1NC(=O)C[C@@H]1[C@@H]2CC[C@]2(C)C(c3cccnc3)=CC[C@@H]12", "STUDY SYSTEM": "Steroid 17-alpha-hydroxylase/17,20 lyase (Homo sapiens)", "RECORDED MEASUREMENT": 6.64}
{"COMPOUND": "C[C@]12CC[C@H](O)CC1=C(C#N)C[C@@H]1[C@@H]2CC[C@]2(C)C(c3cccnc3)=CC[C@@H]12", "STUDY SYSTEM": "Steroid 17-alpha-hydroxylase/17,20 lyase (Homo sapiens)", "RECORDED MEASUREMENT": 7.81}
{"COMPOUND": "C[C@]12CC[C@H](O)C[C@@H]1C(=O)C[C@@H]1[C@@H]2CC[C@]2(C)C(c3cccnc3)=CC[C@@H]12", "STUDY SYSTEM": "Steroid 17-alpha-hydroxylase/17,20 lyase (Homo sapiens)", "RECORDED MEASUREMENT": 7.91}
{"COMPOUND": "C[C@]12CC[C@H](O)CC1=CC[C@@H]1[C@@H]2CC[C@]2(C)C(n3cnc4ccccc43)=CC[C@@H]12 [GALETERONE]", "STUDY SYSTEM": "Steroid 17-alpha-hydroxylase/17,20 lyase (Homo sapiens)", "RECORDED MEASUREMENT": 7.55}

Now for another entry.
pIC50 in this record for C[C@]12CC[C@H](O)CC1=CC[C@@H]1[C@@H]2CC[C@]2(C)C(c3cccnc3)=CC[C@@H]12 [ABIRATERONE] : 8.31

---

target: Steroid 17-alpha-hydroxylase/17,20 lyase (Homo sapiens, UniProt P05093); experiment: Inhibition of C-terminal His-tagged recombinant human CYP17A1delta19H mutant expressed in Escherichia coli JM109 cells assessed as decrease in progesterone hydroxylation in presence of cytochrome P450 reductase […]
Sequence (P05093 whole entry, looked up): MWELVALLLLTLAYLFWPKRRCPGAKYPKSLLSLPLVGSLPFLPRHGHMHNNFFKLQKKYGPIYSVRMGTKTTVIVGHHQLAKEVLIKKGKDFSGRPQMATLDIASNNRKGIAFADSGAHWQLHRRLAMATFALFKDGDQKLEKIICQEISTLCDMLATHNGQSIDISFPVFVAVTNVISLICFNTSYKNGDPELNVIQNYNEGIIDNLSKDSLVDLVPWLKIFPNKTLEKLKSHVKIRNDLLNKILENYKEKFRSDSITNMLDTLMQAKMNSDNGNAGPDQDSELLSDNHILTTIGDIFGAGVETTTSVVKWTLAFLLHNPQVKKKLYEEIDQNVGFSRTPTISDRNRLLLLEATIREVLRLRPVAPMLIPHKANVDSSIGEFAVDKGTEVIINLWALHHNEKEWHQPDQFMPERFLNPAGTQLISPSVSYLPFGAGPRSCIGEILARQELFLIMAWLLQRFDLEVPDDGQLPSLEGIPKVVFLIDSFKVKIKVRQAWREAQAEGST
pIC50: −log10 of the molar value.
ASSAY METRIC: pIC50

Kindly note: Steroid 17-alpha-hydroxylase/17,20 lyase (Homo sapiens, UniProt P05093), C[C@]12CC[C@H](O)CC1=CC[C@@H]1[C@@H]2CC[C@]2(C)C(c3cccnc3)=CC[C@@H]12 , pIC50 value reported: 7.04 to 8.03

---

species on record: Homo sapiens; test: Selectivity ratio of IC50 for C-terminal His-tagged recombinant human CYP21A2deltaH mutant to IC50 for C-terminal His-tagged recombinant human CYP17A1delta19H mutant
# key: entry, value: Ratio IC50
The reply should be a number, written without any unit.

Worked examples, 3 molecules total:
{"TEST SMILES": "C[C@]12CC[C@H](O)C[C@@H]1[C@@H](O)C[C@@H]1[C@@H]2CC[C@]2(C)C(c3cccnc3)=CC[C@@H]12", "Ratio IC50": 33}
{"TEST SMILES": "C[C@]12CC[C@H](O)C[C@@H]1C(=O)C[C@@H]1[C@@H]2CC[C@]2(C)C(c3cccnc3)=CC[C@@H]12", "Ratio IC50": 35}
{"TEST SMILES": "C[C@]12CC[C@H](O)CC1=C(C(N)=O)C[C@@H]1[C@@H]2CC[C@]2(C)C(c3cccnc3)=CC[C@@H]12", "Ratio IC50": 29}

Query C[C@]12CC[C@H](O)C[C@@H]1NC(=O)C[C@@H]1[C@@H]2CC[C@]2(C)C(c3cccnc3)=CC[C@@H]12 yields Ratio IC50 of 16
